- tgt: human κ-chain (human)
- experiment notes: Kd at pH 8, method not stated; mutation ticked in F39W PpL
value kind: Kd (µM)

Value of Kd reported for the binder Y53H F39W PpL (protein) MNIKFAGKETPETPEEPKEEVTIKVNLIFADGKIQTAEWKGTFEEATAEAYRHADLLAKVNGEYTADLEDGGNHMNIKFAGK is 0.5

Value of Kd reported for the binder N76D F39W PpL (protein) MNIKFAGKETPETPEEPKEEVTIKVNLIFADGKIQTAEWKGTFEEATAEAYRYADLLAKVNGEYTADLEDGGNHMDIKFAGK is 0.4
